Each entry below lists one item and its recorded Amount of INF-γ produced by YK-EC value.
Tested on: YK-EC (HLA-A2-restricted CTL cell line) with HLA-A0201-positive T2 cells
ASSAY NAME: IFN-γ production by YK-EC incubated with peptide-pulsed T2 cells (ELISA)
Type: cell-based, human
REPORTED CONDITIONS: 2×10^4 T2 cells pulsed with peptide at 10 μM over 2 hours, incubated with 1×10^5 YK-EC for 18 hours; IFN-γ in supernatant by ELISA; non peptide control 6.5
No end group written: not given here.

Consider the reported Amount of INF-γ produced by YK-EC for these sequences:
RVKAPNKSL [660-668] = 71.1 pg/mL
YVDETGRKL [712-720] = 86.1 pg/mL
AQKTPYIVL [778-786] = 105.4 pg/mL
LLLCQNKGL [642-650] = 109.1 pg/mL

Inquiry: Would you kindly share the measured Amount of INF-γ produced by YK-EC for LLLCQNKGLL [642-651] ?
Reply text: 112.4 pg/mL

Inquiry: Another sequence: LLETTVQKV [650-658]
Reply text: 118.1 pg/mL
